# Tested on: Staphylococcus aureus
# ASSAY_EXPLANATION: Ratio of compound IZ to amikacin IZ for Staphylococcus aureus MTCC 96 at 10 ug/ml by disk diffusion method
# Format: functional
MEASURE_NAME: Ratio

* CCOC(=O)C1C(c2cc3ccccc3nc2Cl)N(N=O)C(c2cc3ccccc3nc2Cl)C(C(=O)OCC)S1(=O)=O (centres undefined) | 0.78
* CCOC(=O)C1C(c2ccsc2)N(N=O)C(c2ccsc2)C(C(=O)OCC)S1(=O)=O (centres undefined) | 0.83
* CCOC(=O)C1C(c2ccc([N+](=O)[O-])cc2)N(N=O)C(c2ccc([N+](=O)[O-])cc2)C(C(=O)OCC)S1(=O)=O (centres undefined) | 0.72
* CCOC(=O)C1C(c2cccc(Cl)c2)N(N=O)C(c2cccc(Cl)c2)C(C(=O)OCC)S1(=O)=O (centres undefined) | 0.61

====

# System: Staphylococcus aureus
# ASSAY_EXPLANATION: Antibacterial activity against Staphylococcus aureus MTCC 96 at 10 ug/ml by disk diffusion method
# Assay type: functional
# CONDITION_DETAILS: read-out: IZ
zone of inhibition at 10 µg/mL by entry:
MEASURE_NAME: zone of inhibition at 10 µg/mL (mm)

- CCOC(=O)C1C(c2cccs2)N(N=O)C(c2cccs2)C(C(=O)OCC)S1(=O)=O (centres undefined): 17
- CCOC(=O)C1C(c2c[nH]c3ccccc23)N(N=O)C(c2c[nH]c3ccccc23)C(C(=O)OCC)S1(=O)=O (centres undefined): 8
- CCOC(=O)C1C(c2cc3ccccc3nc2Cl)N(N=O)C(c2cc3ccccc3nc2Cl)C(C(=O)OCC)S1(=O)=O (centres undefined): 14
- CCOC(=O)C1C(c2ccc[nH]2)N(N=O)C(c2ccc[nH]2)C(C(=O)OCC)S1(=O)=O (centres undefined): 13
- CCOC(=O)C1C(c2cccnc2)N(N=O)C(c2cccnc2)C(C(=O)OCC)S1(=O)=O (centres undefined): 14
- CCOC(=O)C1C(c2ccc3c(c2)OCO3)N(N=O)C(c2ccc3c(c2)OCO3)C(C(=O)OCC)S1(=O)=O (centres undefined): 9
- CCOC(=O)C1C(c2ccccn2)N(N=O)C(c2ccccn2)C(C(=O)OCC)S1(=O)=O (centres undefined): 13
- CCOC(=O)C1C(c2ccsc2)N(N=O)C(c2ccsc2)C(C(=O)OCC)S1(=O)=O (centres undefined): 15
- CCOC(=O)C1C(c2ccc(Cl)cc2)N(N=O)C(c2ccc(Cl)cc2)C(C(=O)OCC)S1(=O)=O (centres undefined): 10
- NCC[C@H](O)C(=O)N[C@@H]1C[C@H](N)[C@@H](O[C@H]2O[C@H](CN)[C@@H](O)[C@H](O)[C@H]2O)[C@H](O)[C@H]1O[C@H]1O[C@H](CO)[C@@H](O)[C@H](N)[C@H]1O: 18
- CCOC(=O)C1C(c2ccc(C)cc2)N(N=O)C(c2ccc(C)cc2)C(C(=O)OCC)S1(=O)=O (centres undefined): 11
- CCOC(=O)C1C(c2ccc(OC)cc2)N(N=O)C(c2ccc(OC)cc2)C(C(=O)OCC)S1(=O)=O (centres undefined): 11
- CCOC(=O)C1C(c2cccc([N+](=O)[O-])c2)N(N=O)C(c2cccc([N+](=O)[O-])c2)C(C(=O)OCC)S1(=O)=O (centres undefined): 12
- CCOC(=O)C1C(c2ccccc2Cl)N(N=O)C(c2ccccc2Cl)C(C(=O)OCC)S1(=O)=O (centres undefined): 9
- CCOC(=O)C1C(c2cccc(Cl)c2)N(N=O)C(c2cccc(Cl)c2)C(C(=O)OCC)S1(=O)=O (centres undefined): 11
- CCOC(=O)C1C(c2ccccc2)N(N=O)C(c2ccccc2)C(C(=O)OCC)S1(=O)=O (centres undefined): 11
- CCOC(=O)C1C(c2ccc(OC)c(OC)c2)N(N=O)C(c2ccc(OC)c(OC)c2)C(C(=O)OCC)S1(=O)=O (centres undefined): 12
- CCOC(=O)C1C(c2ccco2)N(N=O)C(c2ccco2)C(C(=O)OCC)S1(=O)=O (centres undefined): 12
- CCOC(=O)C1C(c2ccc([N+](=O)[O-])cc2)N(N=O)C(c2ccc([N+](=O)[O-])cc2)C(C(=O)OCC)S1(=O)=O (centres undefined): 13
